// values below are reported pKd
Biological target: T1, hu-M-IL1RAP construct, positions S21-T367 (extracellular domain of the membrane form of human IL1RAP) (human, UniProt Q9NPH3 21-367)
T1 construct: Biotinylated when captured on the Biacore chip
T1 sequence: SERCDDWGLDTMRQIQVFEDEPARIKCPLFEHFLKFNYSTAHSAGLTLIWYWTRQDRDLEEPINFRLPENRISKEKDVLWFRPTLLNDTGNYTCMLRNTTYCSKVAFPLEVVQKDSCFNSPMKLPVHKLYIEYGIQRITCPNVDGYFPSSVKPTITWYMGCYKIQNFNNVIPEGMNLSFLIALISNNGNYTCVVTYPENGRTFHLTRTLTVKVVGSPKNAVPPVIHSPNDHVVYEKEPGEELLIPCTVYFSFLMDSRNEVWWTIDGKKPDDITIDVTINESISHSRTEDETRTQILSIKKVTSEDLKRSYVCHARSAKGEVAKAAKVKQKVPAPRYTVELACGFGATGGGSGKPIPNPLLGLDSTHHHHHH
Experiment: SPR, Fab analyte, 25 C
pKd is defined as minus the log10 of a concentration measured in mol/L.

[
  {
    "BINDER": "K2 Fab (VL L33G) (Fab, V domains shown, Fab with 8xHis tag) VH: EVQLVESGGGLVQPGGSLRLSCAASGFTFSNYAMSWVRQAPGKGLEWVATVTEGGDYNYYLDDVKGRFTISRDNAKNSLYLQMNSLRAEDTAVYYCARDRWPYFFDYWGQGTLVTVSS VL: DIQMTQSPSSLSASVGDRVTITCRASENIYSNGAWYQQKPGKSPKLLVYGAKNLADGVPSRFSGSGSGTDYTLTISSLQPEDFATYYCQHFWTTPRTFGGGTKVEIK",
    "pKd": 10.46
  }
]

Below: the item to evaluate.
Can you look up the measured pKd of H4 Fab (VH F29Q) (Fab, V domains shown, Fab with 8xHis tag) VH: EVQLVESGGGLVQPGGSLRLSCAASGFTQSNYAMSWVRQAPGKGLEWVATVTEGGDYNYYLDDVKGRFTISRDNAKNSLYLQMNSLRAEDTAVYYCARDRWPYFFDYWGQGTLVTVSS VL: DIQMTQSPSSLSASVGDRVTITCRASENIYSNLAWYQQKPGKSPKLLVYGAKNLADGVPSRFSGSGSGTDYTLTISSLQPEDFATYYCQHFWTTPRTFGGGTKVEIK for me? 10.38
